Source of measurements: patent US20240084039A1

Quick list: % positives of total tested serum samples per entry.
- measurement_target: pre-existing anti-drug antibodies (ADA) present in human sera
- assay_info: ELISA pre-existing ADA binding assay, confirmatory setup, test molecule coated, 20 human sera
parameter: % positives of total tested serum samples (%)

binder: PRO2906 (scFv) scFv: DIQMTQSPASLSASVGDRVTITCQASQSIGTYLAWYQQKPGKPPKLLIYRAFILASGVPSRFSGSGSGTDFTLTISSLQPEDFATYYCQSNFYSDSTTIGPNAFGTGTKVTVLGGGGGSGGGGSGGGGSGGGGSEVQLVESGGGLVQPGGSLRLSCAASGFSFNSDYWIYWVRQAPGKGLEWIASIYGGSSGNTQYASWAQGRFTISRDNSKNTVYLQMNSLRAEDTATYFCARGYVDYGGATDLWGQGTQVTVSS
endpoint_value: 95
--
binder: PRO2926 (scFv) scFv: DIQMTQSPASLSASVGDRVTITCQASQSIGTYLAWYQQKPGKPPKLLIYRAFILASGVPSRFSGSGSGTDFTLTISSLQPEDFATYYCQSNFYSDSTTIGPNAFGTGTKVTVLGGGGGSGGGGSGGGGSGGGGSEVQLVESGGGSVQPGGSLRLSCAASGFSFNSDYWIYWVRQAPGKGLEWIASIYGGSSGNTQYASWAQGRFTISRDNSKNTVYLQMNSLRAEDTATYFCARGYVDYGGATDLWGQGTQVTVSS
endpoint_value: 40
--
binder: PRO1922 (scFv) scFv: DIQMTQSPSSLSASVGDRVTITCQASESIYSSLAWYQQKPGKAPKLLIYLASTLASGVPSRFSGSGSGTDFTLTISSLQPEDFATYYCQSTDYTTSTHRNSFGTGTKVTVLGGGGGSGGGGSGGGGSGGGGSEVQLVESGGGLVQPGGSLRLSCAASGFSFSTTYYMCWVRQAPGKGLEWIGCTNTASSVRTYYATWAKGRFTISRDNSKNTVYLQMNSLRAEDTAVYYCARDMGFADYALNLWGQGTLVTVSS
endpoint_value: 80
